Assay: qHTS assay to identify small molecule antagonists of the estrogen receptor alpha (ER-alpha) signaling pathway using the BG1 cell line (AID 743080);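 note: BG1 cells stimulated with 17beta-estradiol alongside compound; nearly all actives have a fitted effect of over 25% in size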
Details: BG1Luc4E2 ERE-luciferase antagonist mode, luminescence; series mostly up to 70.3 µM
Inconclusive results are not listed. Calls of active or inactive are those of the source. Calls come from the whole dose curve.
In this exercise, the only acceptable responses are TRUE for active, FALSE for inactive

O=C(O)COc1ccc(C(=O)c2cccs2)c(Cl)c1Cl = FALSE
CC(=O)OCC(=O)[C@@]1(O)CC[C@H]2[C@@H]3CCC4=CC(=O)CC[C@]4(C)C3=CC[C@@]21C = FALSE
O=C(N[C@H](CO)[C@H](O)c1ccc([N+](=O)[O-])cc1)C(Cl)Cl = FALSE
O=C(O)c1ccc(NC2OC[C@@H](O)[C@H](O)[C@H]2O)cc1 (stereo partly drawn) = FALSE
CC(Cc1ccc(O)c(O)c1)C(C)Cc1ccc(O)c(O)c1 (stereo not drawn) = FALSE

API: the following record is the query input.
Hi team, can someone confirm the assay call for O=C(CCN1CCC(c2ccccc2)C1)c1ccc2c(c1)OCCO2 (stereo not drawn) ?
FALSE

---

Target: Estrogen receptor (Homo sapiens) (UniProt P03372)
Sequence (P03372 whole entry, looked up): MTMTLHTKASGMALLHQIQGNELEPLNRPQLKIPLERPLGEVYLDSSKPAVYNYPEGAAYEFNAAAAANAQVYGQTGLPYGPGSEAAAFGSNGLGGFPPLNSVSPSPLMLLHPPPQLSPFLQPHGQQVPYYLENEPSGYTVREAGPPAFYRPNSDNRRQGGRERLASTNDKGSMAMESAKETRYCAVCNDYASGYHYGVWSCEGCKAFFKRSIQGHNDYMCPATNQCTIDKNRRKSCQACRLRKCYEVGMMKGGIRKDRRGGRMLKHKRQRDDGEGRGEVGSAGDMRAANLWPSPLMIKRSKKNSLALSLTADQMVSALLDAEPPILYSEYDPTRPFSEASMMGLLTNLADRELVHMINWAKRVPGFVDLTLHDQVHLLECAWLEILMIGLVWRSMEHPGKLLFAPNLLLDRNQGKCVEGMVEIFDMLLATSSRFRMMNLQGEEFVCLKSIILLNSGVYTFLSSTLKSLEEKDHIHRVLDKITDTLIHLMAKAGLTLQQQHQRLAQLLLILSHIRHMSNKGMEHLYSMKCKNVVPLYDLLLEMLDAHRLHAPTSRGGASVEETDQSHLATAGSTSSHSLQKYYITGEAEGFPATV
Assay: qHTS assay to identify small molecule antagonists of the estrogen receptor alpha (ER-alpha) signaling pathway (AID 743069); note: potency is the fitted concentration of half-maximal effect
Conditions: HEK293 ER-alpha-UAS-bla, beta-lactamase ratio, antagonist mode; series mostly up to 69.4 µM
Active and inactive are the calls of the source. Calls come from the whole dose curve; as a rule, active = well fitted curve in the direction sought with a large enough effect in the signal ratio in the repeat runs (not every such curve was filed as active); inconclusive = weak or mixed curves, or effect the other way; inactive = no such curve, though single readings can be large or run the other way; the % refers to the signal ratio.
READOUT LABEL: Potency

CN[C@H](CC(C)C)C(=O)N[C@H]1C(=O)N[C@@H](CC(N)=O)C(=O)N[C@H]2C(=O)N[C@H]3C(=O)N[C@H](C(=O)N[C@@H](C(=O)O)c4cc(O)cc(O)c4-c4cc3ccc4O)[C@H](O)c3ccc(c(Cl)c3)Oc3cc2cc(c3O[C@@H]2O[C@H](CO)[C@@H](O)[C@H](O)[C@H]2O[C@H]2C[C@](C)(N)C(O)[C@H](C)O2)Oc2ccc(cc2Cl)[C@H]1O (some centres undefined) = inactive
CC(=O)[C@]1(O)Cc2c(O)c3c(c(O)c2[C@@H](O[C@H]2C[C@H](N)[C@H](O)[C@H](C)O2)C1)C(=O)c1ccccc1C3=O = 4.77 µM [inconclusive] (active)
CC(C)=CCC/C(C)=C/CC/C(C)=C/CC/C=C(\C)CC/C=C(\C)CCC=C(C)C = inactive
COC(=O)[C@H]1[C@H]2C[C@H]3c4[nH]c5ccccc5c4CCN3C[C@H]2CC[C@@H]1O = inactive

---

Experiment: qHTS assay for small molecule agonists of the p53 signaling pathway (AID 651631); note: nearly all actives have a fitted effect of over 15% in size
Settings: HCT-116 p53RE-bla reporter, beta-lactamase FRET ratio, 16 h; series mostly up to 73.3 µM
Inconclusive results are not listed. Calls of active or inactive are those of the source. The call rests on the fitted dose curve.
In this exercise, the only acceptable responses are Yes = active, No = inactive

O=C(O)c1cc(O)c2c(c1)[C@H]([C@H]1c3cc(C(=O)O)cc(O)c3C(=O)c3c(O[C@@H]4O[C@H](CO)[C@@H](O)[C@H](O)[C@H]4O)cccc31)c1cccc(O[C@@H]3O[C@H](CO)[C@@H](O)[C@H](O)[C@H]3O)c1C2=O = No
C[N+]1(CCCCC[N+]2(C)CCCC2)CCCC1 = No
CNC(=O)OCc1cccc(COC(=O)NC)n1 = No
N#Cc1c(N(CC(=O)O)CC(=O)O)sc(C(=O)O)c1CC(=O)O = No
Cc1cc(CC(C)CC(C)(C)C)n(O)c(=O)c1 (stereo not drawn) (tested in a mixture with another compound) = Yes

Hi team, can someone confirm the assay call for "NC(=O)[C@H]1O[C@@H](O)[C@H](O)[C@@H](O)[C@@H]1O" ?
No

Hi team, can someone confirm the assay call for "CC(C)CCC[C@@H](C)[C@H]1CC[C@H]2[C@@H]3CC[C@@H]4C[C@H](O)CC[C@]4(C)[C@H]3CC[C@]12C" ?
No

Hi team, can someone confirm the assay call for "CNC(=O)C[C@@H](N)C(=O)N[C@@H](C(=O)N[C@@H]1C(=O)N2[C@@H]1SC(C)(C)[C@@H]2C(=O)O)c1ccc(O)cc1" ?
No

---

Test: qHTS assay to identify small molecule antagonists of the thyroid receptor (TR) signaling pathway - cell viability counter screen (AID 743064); note: nearly all actives have a fitted effect of over 50% in size
Settings: GH3.TRE-Luc viability, CellTiter-Fluor, 24 h; series mostly up to 70.3 µM
From the text: National Center for Advancing Translational Sciences [NCATS] NIH Chemical Genomics Center [NCGC] U.S. Environmental Protection Agency [EPA] National Institutes of Environmental Health Sciences [NIEHS] National Toxicology Program [NTP] U.S. Food and Drug Administration [FDA] Thyroid receptor (TR), a nuclear hormone receptor, plays an important role in development, proliferation, differentiation, metabolism, brain function, and cardiovascular system. […]
Inconclusive results are not listed. Activity calls are given as the source filed them. Calls come from the whole dose curve; as a rule, active = well fitted cell-killing curve with a large enough effect in the repeat runs; inconclusive = weak or mixed curves, or effect the other way; inactive = no such curve, though single readings can be large or run the other way. Positions of bridges follow the written chain, without caps; N, C: chain ends. Non-standard residues stand in square brackets, D forms with d. Residues, ends and D or L forms follow the SMILES beside them. *: point of attachment. X1 = CC[C@@H](C)[C@@H](N)C1=N[C@H](C(=O)*)CS1; d(aIle) = CC[C@H](C)[C@@H](N)C(=O)O; dOrn = NCCC[C@@H](N)C(=O)O
In this exercise, the only acceptable responses are true = active, false = inactive

Example entries begin here.
CN1CCN(CCCN2c3ccccc3Sc3ccc(Cl)cc32)CC1 = true
Nc1nc(/C(=C/CC(=O)O)C(=O)N[C@@H]2C(=O)N3C(C(=O)O)=CCS[C@H]23)cs1 = false
C=CCN1C(=O)C(CC(C)C)NC1=S (configuration not stated) = false
CC[C@@H](C)[C@@H](N)C1=N[C@H](C(=O)N[C@@H](CC(C)C)C(=O)N[C@@H](CCC(=O)O)C(=O)N[C@@H](C(=O)N[C@@H]2CCCCNC(=O)[C@@H](CC(N)=O)NC(=O)[C@@H](CC(=O)O)NC(=O)[C@@H](Cc3cnc[nH]3)NC(=O)[C@@H](Cc3ccccc3)NC(=O)[C@@H]([C@H](C)CC)NC(=O)[C@@H](CCCN)NC2=O)[C@@H](C)CC)CS1 (X1-LE[d(aIle)][dK][dOrn][dI][dF][dH][dD][dN]; lactam 4-C) = false
Cc1ccc(C(C)(C)c2ccc(C)cc2)cc1 = false
CC12CCC(C1)C(C)(C)C2=O (configuration not stated) = false

Hi team, can someone confirm the assay call for C=CC1=C(C(=O)O)N2C(=O)[C@@H](NC(=O)/C(=N\O)c3csc(N)n3)[C@H]2SC1 (stereo in doubt) ?
false

Hi team, can someone confirm the assay call for "COc1cc([C@@H]2c3cc4c(cc3[C@@H](O[C@@H]3O[C@@H]5CO[C@@H](C)O[C@H]5[C@H](O)[C@H]3O)[C@H]3COC(=O)[C@H]23)OCO4)cc(OC)c1O" ?
true

Hi team, can someone confirm the assay call for "CCc1ncnc2cc(OC)c(OC)cc12" ?
false

Hi team, can someone confirm the assay call for "C[C@H](O)CN(C)C" ?
false

---

Experiment: qHTS assay for identifying genotoxic compounds that show differential cytotoxicity against isogenic chicken DT40 cell lines with known DNA damage response pathways - Rad54/Ku70 mutant cell line (AID 743015); note: nearly all actives have a fitted effect of over 60% in size
Details: DT40 Rad54/Ku70 mutant viability, CellTiter-Glo, 40 h; series mostly up to 66.8 µM
Results filed as inconclusive are left out. The source made the active and inactive calls. The call rests on the fitted dose curve; in most records, active means well fitted cell-killing curve with a large enough effect in the repeat runs; inconclusive means weak or mixed curves; inactive means no such curve, though single readings can be large or run the other way.
In this exercise, the only acceptable responses are active, inactive

COc1c(Br)cc(Br)c(C)c1Br = inactive
CN[C@H](CC(C)C)C(=O)N[C@H]1C(=O)N[C@@H](CC(N)=O)C(=O)N[C@H]2C(=O)N[C@H]3C(=O)N[C@H](C(=O)N[C@@H](C(=O)O)c4cc(O)cc(O)c4-c4cc3ccc4O)[C@H](O)c3ccc(c(Cl)c3)Oc3cc2cc(c3O[C@@H]2O[C@H](CO)[C@@H](O)[C@H](O)[C@H]2O[C@H]2C[C@](C)(N)C(O)[C@H](C)O2)Oc2ccc(cc2Cl)[C@H]1O (some centres undefined) = inactive
Cc1cccc(C)c1NC(=O)C1CCCCN1C (centres undefined) = inactive
C1CCc2nnnn2CC1 = inactive
CO/N=C(\C(=O)N[C@@H]1C(=O)N2C(C(=O)[O-])=C(C[n+]3cccc4c3CCC4)CS[C@H]12)c1csc(N)n1 = inactive
CC(C)NCC1CCc2cc(CO)c([N+](=O)[O-])cc2N1 (centres undefined) = inactive
OCl = inactive
O=c1[nH]c(=O)n([C@H]2C[C@H](O)[C@@H](CO)O2)cc1/C=C/Br = inactive

Hi team, can someone confirm the assay call for "CC/C=C\C/C=C\C/C=C\C/C=C\C/C=C\CCCC(=O)O" ?
inactive

Hi team, can someone confirm the assay call for "N[C@@H](Cc1cnc[nH]1)C(=O)O" ?
inactive

Hi team, can someone confirm the assay call for "Cc1ncc(C[n+]2csc(CCOP(=O)(O)O)c2C)c(N)n1" ?
inactive

Hi team, can someone confirm the assay call for CCCCCCCCCCCCCC(=O)OCC(COP(=O)([O-])OCC[N+](C)(C)C)OC(=O)CCCCCCCCCCCCC (centres undefined) ?
inactive
